Test: NADH-endpoint coupling enzyme inhibition profiling – biochemical, MLSMR library, artefact control, profiling panel (AID 774);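 further: the DPM-DC format reads NADH fluorescence rather than 340 nm absorbance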
Details: coupled PK/LDH NADH assays, four targets; at 10 µM; stronger effect = higher value
About 15 (0.02%) of roughly 65,000 compounds were called active. Not all results are given here.

COMPOUND_STRUCTURE_STRING: CCn1nc(NC(=O)c2ccco2)c2cc3ccc(C)cc3nc21
inhibition: 9% (inactive)
//
COMPOUND_STRUCTURE_STRING: C=CCn1c(COc2ccccc2)nnc1SCC(=O)NCC(=O)OCC
inhibition: 3% (inactive)
//
COMPOUND_STRUCTURE_STRING: CCCCOC(=O)c1[nH]c(C)c(C(=O)OC)c1C
inhibition: 1% (inactive)
//
COMPOUND_STRUCTURE_STRING: CC(=O)c1cc(C#N)c(SCC(=O)C(C)(C)C)nc1C
inhibition: 1% (inactive)
//
COMPOUND_STRUCTURE_STRING: CCCn1c(SCC(=O)Nc2cccc(C(=O)OCC)c2)nnc1-c1ccoc1C
inhibition: 7% (inactive)
//
COMPOUND_STRUCTURE_STRING: C[N+](C)(C)CCOP(=O)([O-])OC[C@H](O)CO
inhibition: 2% (inactive)
//
COMPOUND_STRUCTURE_STRING: Cc1ccc2[nH]c3c(c2c1)CN(C(=O)CN1CCN(c2ccccc2)CC1)CC3
inhibition: 3% (inactive)
//
COMPOUND_STRUCTURE_STRING: O=C(COC(=O)c1ccccc1C(=O)c1ccccc1)c1ccco1
inhibition: 4% (inactive)
//
COMPOUND_STRUCTURE_STRING: COc1ccc(OC)c(NC(=O)CN2CCN(C(=O)c3ccco3)CC2)c1
inhibition: 3% (inactive)
//
COMPOUND_STRUCTURE_STRING: c1ccc(-c2noc(-c3cccs3)n2)nc1
inhibition: 3% (inactive)
//
COMPOUND_STRUCTURE_STRING: CC(=O)c1c(N2CCOCC2)nc(=S)n(-c2cc(C)ccc2C)c1C
inhibition: 5% (inactive)

* * *

Assay: NADH-endpoint coupling enzyme inhibition profiling – biochemical, MLSMR library, artefact control, profiling panel (AID 774);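 further: the DPM-DC format reads NADH fluorescence rather than 340 nm absorbance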
Conditions: coupled PK/LDH NADH assays, four targets; at 10 µM; stronger effect = higher value
Among all 65,000 compounds or so, about 15 (0.02%) were called active. Not all results are given here.
// N strictly below 4% in inhibition; Y otherwise

COMPOUND: CCCn1cc(SCC(N)=O)c2ccccc21
ASSIGNED_CLASS: N
//
COMPOUND: Cc1cc(N2CCCC2)n2nc(C)c(-c3ccccc3)c2n1
ASSIGNED_CLASS: Y
//
COMPOUND: CC1CN(c2cc(=O)n(-c3cccc(Br)c3)c(=O)[nH]2)CC(C)O1 (stereo unspecified)
ASSIGNED_CLASS: N
//
COMPOUND: CCC(C(=O)Nc1ncccn1)(C(F)(F)F)C(F)(F)F
ASSIGNED_CLASS: N
//
COMPOUND: CCOC(=O)CCCNC(=O)CN1C(=O)NC(CCc2ccccc2)C1=O (stereo unspecified)
ASSIGNED_CLASS: Y

* * *

Experiment: NADH-endpoint coupling enzyme inhibition profiling – biochemical, MLSMR library, artefact control, profiling panel (AID 774);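 further: the DPM-DC format reads NADH fluorescence rather than 340 nm absorbance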
Conditions: coupled PK/LDH NADH assays, four targets; at 10 µM; stronger effect = higher value
The whole screen tested about 65,000 compounds, of which about 15 (0.02%) were called active. These entries were drawn from the full list.
// NOT MET strictly below 4% in inhibition; MET otherwise

COMPOUND: CCn1c(SCC(=O)NCc2ccco2)nnc1-c1ccc(N)cc1
ASSIGNED_CLASS: NOT MET
--
COMPOUND: CN1CCN(S(=O)(=O)c2ccc(NC(=O)c3ccco3)cc2)CC1
ASSIGNED_CLASS: NOT MET
--
COMPOUND: O=P(O)(CP(=O)(c1ccccc1)c1ccccc1)c1ccccc1
ASSIGNED_CLASS: MET
--
COMPOUND: O=C(NCc1ccc2c(c1)OCO2)c1cc2c(s1)CS(=O)(=O)C2
ASSIGNED_CLASS: MET
--
COMPOUND: C=CCc1cccc2cc(C(=O)OCC)c(=O)oc12
ASSIGNED_CLASS: MET
--
COMPOUND: Cc1ccc(S(=O)(=O)c2nc(NCCCn3ccnc3)sc2Cl)cc1
ASSIGNED_CLASS: MET
--
COMPOUND: Cc1cc(C)c(C(=O)CN2C(=O)CCC2=O)cc1C
ASSIGNED_CLASS: MET
--
COMPOUND: CCOC(=O)N1CCC(O)(c2cc(C)c(C)cc2C)CC1
ASSIGNED_CLASS: NOT MET
--
COMPOUND: CC(C)(C)c1ccc(C(=O)NCCC(=O)NCc2ccco2)cc1
ASSIGNED_CLASS: MET
--
COMPOUND: Cc1noc(C)c1S(=O)(=O)N(CC(=O)NCc1ccc(Cl)cc1)c1ccc2c(c1)OCO2
ASSIGNED_CLASS: MET
--
COMPOUND: CC1(C)CC(=O)c2sc(N)nc2C1
ASSIGNED_CLASS: NOT MET
--
COMPOUND: Cc1cc(NC(=O)Nc2ccccc2)n(-c2ccccc2)n1
ASSIGNED_CLASS: NOT MET
--
COMPOUND: CCOC(=O)c1nnn(-c2nc(OC)nc(N(C)C)n2)c1-c1ccccc1
ASSIGNED_CLASS: MET
--
COMPOUND: COc1cccc(NC(=O)Nc2nnc(N3CCCCC3C)s2)c1 (centres undefined)
ASSIGNED_CLASS: MET
--
COMPOUND: CCn1c(NCCc2ccc(OC)c(OC)c2)nc2c1c(=O)n(C)c(=O)n2C
ASSIGNED_CLASS: MET
--
COMPOUND: O=C(C1CCN(CC2CCCCC2)CC1)N1CCCC1
ASSIGNED_CLASS: MET
--
COMPOUND: Cc1cc(C)nc(N(C#N)CC(=O)Nc2ccccc2)n1
ASSIGNED_CLASS: MET
--
COMPOUND: O=C(Cn1c(=O)sc2ccccc21)Nc1nc2c(s1)CCCC2
ASSIGNED_CLASS: MET

* * *

Assay: NADH-endpoint coupling enzyme inhibition profiling – biochemical, MLSMR library, artefact control, profiling panel (AID 774);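 further: the DPM-DC format reads NADH fluorescence rather than 340 nm absorbance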
Conditions: coupled PK/LDH NADH assays, four targets; at 10 µM; stronger effect = higher value
Out of some 65,000 compounds screened, about 15 (0.02%) were called active. The list is a sample of the results.
Measured inhibition of individual entries

COMPOUND: c1ccc2c(c1)OCC(c1nn3cnnc3s1)O2 (stereo unspecified)
UNITS_SYMBOL: %
inhibition: 3

COMPOUND: Cc1nc(CNS(=O)(=O)c2cccnc2)cs1
UNITS_SYMBOL: %
inhibition: 5

COMPOUND: O=C(CSc1nnc(Cc2ccccc2)n1-c1ccccc1)N1CCOCC1
UNITS_SYMBOL: %
inhibition: 5

COMPOUND: Cn1c(=O)[nH]c(=O)c2c1nc(CN(Cc1ccccc1)Cc1ccccc1)n2CCN1CCOCC1
UNITS_SYMBOL: %
inhibition: 0

COMPOUND: O=P(c1ccc2c(c1)OCCO2)(N1CCOCC1)N1CCOCC1
UNITS_SYMBOL: %
inhibition: 0

COMPOUND: CC(NCCO)C(=O)C12CC3CC(CC(C3)C1)C2 (stereo unspecified)
UNITS_SYMBOL: %
inhibition: 4

* * *

Assay: NADH-endpoint coupling enzyme inhibition profiling – biochemical, MLSMR library, artefact control, profiling panel (AID 774);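 further: the DPM-DC format reads NADH fluorescence rather than 340 nm absorbance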
Conditions: coupled PK/LDH NADH assays, four targets; at 10 µM; stronger effect = higher value
The campaign covered roughly 65,000 compounds. About 15 (0.02%) were called active. Only a sample is shown.

COMPOUND: Oc1c(C(c2ccco2)N2CCC3(CC2)OCCO3)sc2ncnn12 (stereo unspecified)
UNITS_SYMBOL: %
inhibition: 3
--
COMPOUND: CCc1c(O)nc(SCC(=O)N2CCCCC2)n(-c2ccccc2C)c1=O
UNITS_SYMBOL: %
inhibition: 11
--
COMPOUND: O=C(OCC(O)C(O)COC(=O)c1ccccc1)c1ccccc1 (stereo unspecified)
UNITS_SYMBOL: %
inhibition: 5
--
COMPOUND: COC(=O)C(C)N(C#N)c1nc(C)nc(C)n1 (stereo unspecified)
UNITS_SYMBOL: %
inhibition: 9
--
COMPOUND: CCCCC(CC)C(=O)Nc1ccc(Cl)cn1 (stereo unspecified)
UNITS_SYMBOL: %
inhibition: 5
--
COMPOUND: CCOP1(=O)C=C(C(C)(C)C)OC1c1ccc(F)cc1 (stereo unspecified)
UNITS_SYMBOL: %
inhibition: 5
--
COMPOUND: CC1(C)CCCC2=C1CC1C(=O)N(c3ccccc3)C(=O)C1C2 (stereo unspecified)
UNITS_SYMBOL: %
inhibition: 6
--
COMPOUND: Cc1ccc(NC(=O)c2cc(-c3ccc(C)o3)nc3ccccc23)nc1
UNITS_SYMBOL: %
inhibition: 5
--
COMPOUND: COc1ccc(OCc2cccc(C(=O)N3CCCC3)c2)cc1
UNITS_SYMBOL: %
inhibition: 9
--
COMPOUND: CCOC(=O)N1CCN(C(=O)c2ccc(CN(c3ccc(C)c(C)c3)S(C)(=O)=O)cc2)CC1
UNITS_SYMBOL: %
inhibition: 2
--
COMPOUND: CC(=O)Nc1ccc(S(=O)(=O)N2CCN(C3CCCCCCC3)CC2)cc1
UNITS_SYMBOL: %
inhibition: 6

From: PubChem BioAssay AID774
